Entry source: PubChem BioAssay AID2060618

Listed below: pIC50 values for each entry.
Test system: 454973-116-R2-J3-PDC spheroids, percent test/control viability;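 further: spheroids exposed to compounds for 7 days before readout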
Assay: Anticancer human tumor 454973-116-R2-J3-PDC patient-derived pancreatic carcinoma cell line growth inhibition [CLK]
Settings: curve of first compound; second compound 0.0316 µM; spheroids with HUVEC and MSC
pIC50: −log10 of the molar value.

- Compound: "C=CC(=O)N1CCN(c2nc(=O)n(-c3c(C)ccnc3C(C)C)c3nc(-c4c(O)cccc4F)c(F)cc23)C(C)C1 (stereo not given) + CN1CCN(c2cc(C(=O)Nc3cc4cc(-c5cnn(C)c5)ccc4cn3)ccn2)CC1"
  Relation Qualifier: "<"
  pIC50: 5.00
- Compound: "Cn1ncnc1[C@H]1c2n[nH]c(=O)c3cc(F)cc(c23)N[C@@H]1c1ccc(F)cc1 + CNC(=O)c1ccc(Nc2nc(OC3CCCC3)c3c(-c4ccc5nc(C)oc5c4)c[nH]c3n2)c(OC)c1"
  Relation Qualifier: "<"
  pIC50: 7.00
- Compound: "CC1COCCN1c1cc(C2(S(C)(=N)=O)CC2)nc(-c2ccnc3[nH]ccc23)n1 (stereo not given) + CNC(=O)c1ccc(Nc2nc(OC3CCCC3)c3c(-c4ccc5nc(C)oc5c4)c[nH]c3n2)c(OC)c1"
  Relation Qualifier: "="
  pIC50: 5.20
- Compound: "CCCS(=O)(=O)Nc1ccc(F)c(C(=O)c2c[nH]c3ncc(-c4ccc(Cl)cc4)cc23)c1F + CN1CCN(c2cc(C(=O)Nc3cc4cc(-c5cnn(C)c5)ccc4cn3)ccn2)CC1"
  Relation Qualifier: "="
  pIC50: 5.15
- Compound: "CCc1c2c(nc3ccc(O)cc13)-c1cc3c(c(=O)n1C2)COC(=O)[C@]3(O)CC + CN1CCN(c2cc(C(=O)Nc3cc4cc(-c5cnn(C)c5)ccc4cn3)ccn2)CC1"
  Relation Qualifier: ">"
  pIC50: 8.50
- Compound: "COc1ccc([C@@H](O)c2cc(-c3ncnc4cc(N5CCOCC5)ccc34)c(F)cc2Cl)nn1 + CNC(=O)c1ccc(Nc2nc(OC3CCCC3)c3c(-c4ccc5nc(C)oc5c4)c[nH]c3n2)c(OC)c1"
  Relation Qualifier: "<"
  pIC50: 5.00
- Compound: "CC(C)CC(NC(=O)C(Cc1ccccc1)NC(=O)c1cnccn1)B(O)O (stereo not given) + CNC(=O)c1ccc(Nc2nc(OC3CCCC3)c3c(-c4ccc5nc(C)oc5c4)c[nH]c3n2)c(OC)c1"
  Relation Qualifier: "="
  pIC50: 8.59
- Compound: "O=C(c1cc(Cc2n[nH]c(=O)c3ccccc23)ccc1F)N1CCN(C(=O)C2CC2)CC1 + CNC(=O)c1ccc(Nc2nc(OC3CCCC3)c3c(-c4ccc5nc(C)oc5c4)c[nH]c3n2)c(OC)c1"
  Relation Qualifier: "<"
  pIC50: 5.00
- Compound: "CC(C)CC(NC(=O)C(Cc1ccccc1)NC(=O)c1cnccn1)B(O)O (stereo not given) + CN1CCN(c2cc(C(=O)Nc3cc4cc(-c5cnn(C)c5)ccc4cn3)ccn2)CC1"
  Relation Qualifier: "="
  pIC50: 8.48
- Compound: "CC1(C)CCC(CN2CCN(c3ccc(C(=O)NS(=O)(=O)c4ccc(NCC5CCOCC5)c([N+](=O)[O-])c4)c(Oc4cnc5[nH]ccc5c4)c3)CC2)=C(c2ccc(Cl)cc2)C1 + CN1CCN(c2cc(C(=O)Nc3cc4cc(-c5cnn(C)c5)ccc4cn3)ccn2)CC1"
  Relation Qualifier: "="
  pIC50: 5.15
